Assay: Volume of distribution in rat at 1 and 5 mg/kg, iv administered as bolus dose
Format: ADME, organism-based
Set-up: dose 5 mg/kg, route intravenous
Details: in vivo
quantityKind: Vd
The reply should consist of the numeric value with the unit placed after it.

Data request: # lookup: Vd of Cc1ccc(C(=O)N(CCCN)C(c2nc3snc(C)c3c(=O)n2Cc2ccccc2)C(C)C)cc1 (single isomer, unassigned; (+))
Data returned: 10 L/kg

----------
Assay: Plasma protein binding in Wistar rat
Type: ADME, cell-free
Conditions: read-out: PPB (converted)
quantityKind: fraction unbound
Answer with a number only.

Data request: # lookup: fraction unbound of Cc1ccc(C(=O)N(CCCN)C(c2nc3snc(C)c3c(=O)n2Cc2ccccc2)C(C)C)cc1 (single isomer, unassigned; (+))
Data returned: 0.044

----------
Overview of reported IC50 across a group of molecules:
Molecular target: Kinesin-like protein KIF11 (Homo sapiens, UniProt P52732)
Sequence (P52732 whole entry): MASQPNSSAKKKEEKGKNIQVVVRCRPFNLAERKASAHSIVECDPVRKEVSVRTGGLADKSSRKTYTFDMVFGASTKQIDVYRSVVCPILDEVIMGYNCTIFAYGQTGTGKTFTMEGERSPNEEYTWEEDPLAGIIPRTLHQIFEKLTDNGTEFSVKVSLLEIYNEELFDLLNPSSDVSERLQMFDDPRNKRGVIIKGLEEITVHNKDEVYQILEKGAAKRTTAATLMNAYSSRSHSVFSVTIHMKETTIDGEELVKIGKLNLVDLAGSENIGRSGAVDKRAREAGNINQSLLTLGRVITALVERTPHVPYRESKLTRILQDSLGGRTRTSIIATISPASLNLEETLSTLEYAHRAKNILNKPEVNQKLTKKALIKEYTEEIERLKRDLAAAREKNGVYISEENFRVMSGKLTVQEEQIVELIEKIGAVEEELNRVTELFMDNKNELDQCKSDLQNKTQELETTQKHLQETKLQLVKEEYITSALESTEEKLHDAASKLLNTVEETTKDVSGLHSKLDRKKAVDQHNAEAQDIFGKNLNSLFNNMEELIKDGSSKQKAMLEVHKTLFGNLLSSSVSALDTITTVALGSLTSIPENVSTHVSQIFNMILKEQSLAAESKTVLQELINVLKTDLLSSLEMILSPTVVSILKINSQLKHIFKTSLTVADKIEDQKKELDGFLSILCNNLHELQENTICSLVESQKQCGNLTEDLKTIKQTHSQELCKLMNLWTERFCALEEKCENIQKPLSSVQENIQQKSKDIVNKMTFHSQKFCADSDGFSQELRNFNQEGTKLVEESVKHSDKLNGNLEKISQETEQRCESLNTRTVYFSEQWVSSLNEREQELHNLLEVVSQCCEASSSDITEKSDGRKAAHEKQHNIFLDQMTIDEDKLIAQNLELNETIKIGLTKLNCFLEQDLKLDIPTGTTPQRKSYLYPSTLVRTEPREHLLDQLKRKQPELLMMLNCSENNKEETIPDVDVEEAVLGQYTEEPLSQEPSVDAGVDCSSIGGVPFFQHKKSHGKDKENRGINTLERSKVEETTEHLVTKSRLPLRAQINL
Test: Inhibition of human recombinant C-terminal His6-tagged KSP ATPase activity after 1 hr by malachite green assay
Dear colleague, please return just the value in nM, with no unit written.

molecule	unitsLabel	IC50
CCC(c1nc2ccsc2c(=O)n1Cc1ccccc1)N(CC1CNCCO1)C(=O)c1ccc(C)cc1 (centres undefined)	nM	310

Data request: # query: IC50 | item CCC(c1nc2ccsc2c(=O)n1Cc1cccc(F)c1)N(CCCN)C(=O)c1ccc(C)cc1 (centres undefined) | system: Kinesin-like protein KIF11 (Homo sapiens, UniProt P52732)
Data returned: 20

Data request: CCC(c1nc2onc(C)c2c(=O)n1Cc1ccccc1)N(CCCN)C(=O)c1ccc(C)cc1 (centres undefined) , same question.
Data returned: 16
